Just for reference, patent US10889553B2 is where these values come from.

# key: entry, value: EC50
# STUDY_SYSTEM: Parkin ligase (Homo sapiens)
# Sequence (O60260 1-465): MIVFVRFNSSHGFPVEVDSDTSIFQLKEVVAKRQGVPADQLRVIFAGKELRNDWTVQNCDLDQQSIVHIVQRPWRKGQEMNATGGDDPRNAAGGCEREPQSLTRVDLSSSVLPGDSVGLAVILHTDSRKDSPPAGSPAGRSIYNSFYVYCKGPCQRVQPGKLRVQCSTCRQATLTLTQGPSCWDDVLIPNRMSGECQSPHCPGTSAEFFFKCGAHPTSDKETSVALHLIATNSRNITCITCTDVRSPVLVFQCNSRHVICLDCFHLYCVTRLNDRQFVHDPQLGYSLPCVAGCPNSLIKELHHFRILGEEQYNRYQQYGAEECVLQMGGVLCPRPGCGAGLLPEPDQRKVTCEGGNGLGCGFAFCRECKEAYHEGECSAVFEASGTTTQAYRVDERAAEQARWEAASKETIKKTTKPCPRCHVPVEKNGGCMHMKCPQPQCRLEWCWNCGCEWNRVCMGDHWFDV
# EXPERIMENT_NOTES: Activity-Based Probe Assay using Ubiquitin vinyl sulfone probe (TR-FRET)
# Assay type: biochemical
# ASSAY_CONDITIONS: heat activated Parkin, HA-Ub-VS probe, activation EC50; read-out: Probe Assay EC50 (μM) [Example 2]
# Excerpt: An Ubiquitin vinyl sulfone probe can be used that irreversibly binds to the active site cysteine of Parkin ligase. Covalent attachment of the probe to the Parkin can be monitored by TR-FRET. […] 12) Read plates on Perkin Elmer Envision instrument with the following parameters: […] Read 655 nm (channel 1) and 615 nm (channel 2) wavelengths on Envision® Data Analysis: The Data can be read in CSV files. […]
QUANTITY_KIND: EC50 (µM)

COMPOUND: Cc1ccccc1C(=O)Nc1nc(N[C@H](C)c2ccccc2)nn1-c1ccc(OC(F)(F)F)cc1 [Compound 118]
RESULT_OPERATOR: =
REPORTED: 1

COMPOUND: Cc1ccccc1C(=O)Nc1nc(NCCc2ccccc2)nn1-c1ccc(Cl)cc1 [Compound 109]
RESULT_OPERATOR: =
REPORTED: 1

COMPOUND: Cc1cccc(-c2nc(NC(=O)c3ccccc3C)n(-c3ccc(Cl)cc3)n2)n1 [Compound 127]
RESULT_OPERATOR: =
REPORTED: 2

COMPOUND: Cc1ccccc1C(=O)Nc1nc(-c2cccc(F)n2)nn1-c1cccc(F)c1 [Compound 132]
RESULT_OPERATOR: =
REPORTED: 3

COMPOUND: Cc1ccccc1C(=O)Nc1nc(-c2cccc(F)n2)nn1-c1ccccc1 [Compound 123]
RESULT_OPERATOR: =
REPORTED: 7

COMPOUND: Cc1ccccc1C(=O)Nc1nc(NC(=O)c2ccccc2C)n(-c2ccc(N3CCOCC3)cc2)n1 [Compound 54]
RESULT_OPERATOR: =
REPORTED: 10

COMPOUND: Cc1ccccc1C(=O)Nc1nc(NC(=O)c2ccccc2C)n(-c2ccc(C#N)cc2)n1 [Compound 35]
RESULT_OPERATOR: =
REPORTED: 3

COMPOUND: C#Cc1cccc(C(=O)Nc2nc(NC(=O)c3cccc(N=[N+]=[N-])c3)n(-c3ccccc3)n2)c1 [Compound 11]
RESULT_OPERATOR: =
REPORTED: 2

COMPOUND: Cc1ccccc1C(=O)Nc1nc(NCc2ccc(Cl)cc2)nn1-c1ccc(OC(F)(F)F)cc1 [Compound 113]
RESULT_OPERATOR: =
REPORTED: 0.8

COMPOUND: Cc1ccccc1C(=O)Nc1nc(NC(=O)c2ccccc2C)n(-c2ccccc2Cl)n1 [Compound 26]
RESULT_OPERATOR: =
REPORTED: 6

COMPOUND: C#Cc1ccc(C(=O)Nc2nc(NC(=O)c3cccc(N=[N+]=[N-])c3)nn2-c2ccccc2)cc1 [Compound 48]
RESULT_OPERATOR: =
REPORTED: 2

COMPOUND: Cc1ccccc1C(=O)Nc1nc(-c2cscn2)nn1-c1ccccc1 [Compound 135]
RESULT_OPERATOR: >
REPORTED: 100

COMPOUND: Cc1cccc(C)c1C(=O)Nc1nc(NC(=O)c2c(C)cccc2C)n(-c2ccccc2)n1 [Compound 100]
RESULT_OPERATOR: =
REPORTED: 9

COMPOUND: Cc1ccccc1C(=O)Nc1nc(NC(=O)C2CCN2)nn1-c1ccccc1 (stereo not shown) [Compound 5]
RESULT_OPERATOR: =
REPORTED: 3

COMPOUND: Cc1ccccc1C(=O)Nc1nc(NC(=O)c2ccccn2)nn1-c1ccccc1 [Compound 16]
RESULT_OPERATOR: =
REPORTED: 3

COMPOUND: O=C(Nc1nc(NC(=O)C2CCCNC2)n(-c2ccccc2)n1)C1CCCNC1 (stereo not shown) [Compound 56]
RESULT_OPERATOR: >
REPORTED: 100

COMPOUND: Cc1ccccc1C(=O)Nc1nc(NC(=O)C2CCCN2)n(-c2ccccc2)n1 (stereo not shown) [Compound 15]
RESULT_OPERATOR: >
REPORTED: 100

COMPOUND: Cc1ccccc1C(=O)Nc1nc(NCc2ccccc2)nn1-c1ccc(Cl)cc1 [Compound 108]
RESULT_OPERATOR: =
REPORTED: 1.5

COMPOUND: Cc1ccc(C(=O)Nc2nc(NC(=O)c3ccc(C)cc3)n(-c3ccccc3)n2)cc1 [Compound 21]
RESULT_OPERATOR: =
REPORTED: 5

COMPOUND: Cc1ccccc1C(=O)Nc1nc(NCc2ccccn2)nn1-c1ccccc1 [Compound 101]
RESULT_OPERATOR: =
REPORTED: 18

COMPOUND: COc1ccccc1C(=O)Nc1nc(NC(=O)c2ccccc2OC)n(-c2ccccc2)n1 [Compound 23]
RESULT_OPERATOR: =
REPORTED: 10

COMPOUND: Cc1ccccc1C(=O)Nc1nc(NC(=O)c2ccccc2C)n(-c2ccc(N3CCC3)cc2)n1 [Compound 64]
RESULT_OPERATOR: =
REPORTED: 8

COMPOUND: Cc1ccccc1C(=O)Nc1nc(NC(=O)c2cocn2)n(-c2ccccc2)n1 [Compound 9]
RESULT_OPERATOR: =
REPORTED: 32

COMPOUND: c1ccc(CCNc2nc(NCCc3ccccc3)n(-c3ccccc3)n2)cc1 [Compound 143]
RESULT_OPERATOR: >
REPORTED: 100

COMPOUND: Cc1ccccc1C(=O)Nc1nc(NC(=O)c2ncco2)n(-c2ccccc2)n1 [Compound 10]
RESULT_OPERATOR: =
REPORTED: 30

COMPOUND: Cc1cnccc1C(=O)Nc1nc(NC(=O)c2ccncc2C)n(-c2ccccc2)n1 [Compound 99]
RESULT_OPERATOR: =
REPORTED: 13

COMPOUND: Cc1ccccc1C(=O)Nc1nc(NC(=O)c2c(F)cccc2F)nn1-c1ccccc1 [Compound 119]
RESULT_OPERATOR: =
REPORTED: 2

COMPOUND: CCc1ccccc1C(=O)Nc1nc(NC(=O)c2ccccc2CC)n(-c2ccccc2)n1 [Compound 88]
RESULT_OPERATOR: =
REPORTED: 5

COMPOUND: COc1cccc(C(=O)Nc2nc(NC(=O)c3cccc(OC)c3)n(-c3ccccc3)n2)c1 [Compound 27]
RESULT_OPERATOR: =
REPORTED: 3

COMPOUND: Cc1ccccc1C(=O)Nc1nc(NC(=O)c2cccnc2)nn1-c1cccc(F)c1 [Compound 87]
RESULT_OPERATOR: =
REPORTED: 7

COMPOUND: Cc1cncc(F)c1C(=O)Nc1nc(NC(=O)c2c(C)cncc2F)n(-c2ccccc2)n1 [Compound 93]
RESULT_OPERATOR: >
REPORTED: 100

COMPOUND: O=C(Nc1nc(NC(=O)c2cccnc2)n(-c2ccc(Cl)cc2)n1)c1cccnc1 [Compound 81]
RESULT_OPERATOR: =
REPORTED: 3

COMPOUND: O=C(Nc1nc(NC(=O)C2CCCCN2)n(-c2ccccc2)n1)C1CCCCN1 (stereo not shown) [Compound 49]
RESULT_OPERATOR: >
REPORTED: 100

COMPOUND: Cc1ccccc1C(=O)Nc1nc(-c2ncccc2C)nn1-c1ccc(Cl)cc1 [Compound 142]
RESULT_OPERATOR: =
REPORTED: 0.3

----------
# System: HCT-116 (colon)
# EXPERIMENT_NOTES: Cancer cell proliferation assay (acid phosphatase)
# Format: cell-based
# ASSAY_CONDITIONS: Homo sapiens, HCT-116; Table 6E; read-out: Proliferation IC50 (nM) CRC HCT-116
QUANTITY_KIND: IC50 (nM)

COMPOUND: Cc1ccccc1C(=O)Nc1nc(NC(=O)c2ccccc2C)n(-c2ccc(OC(F)(F)F)cc2)n1 [Compound 42]
U: nM
REPORTED: 87

COMPOUND: Cc1ccccc1C(=O)Nc1nc(NC(=O)c2ccccc2C)n(-c2ccccc2)n1 [Compound F]
U: nM
REPORTED: 1300
